Data origin: PubChem BioAssay (NCATS)

TEST_PROTOCOL: Cellular Toxicity (caspase-3) Jurkat (AID 655);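 further: cells exposed to compound for 16 h at 37 °C before reading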
MEASUREMENT_PARAMETERS: Jurkat caspase-3 activation, luminescence, DMSO = 0%, tamoxifen = 100%; at 92.2 µM (top of the series)
Results filed as inconclusive are left out.
Catalogue of caspase-3 activation values
OBSERVABLE: caspase-3 activation (%)

In [3]: df
Out[3]:
                                   compound  reported
0      O=c1cc(-c2ccc(O)cc2)oc2cc(O)cc(O)c12      8.24
1   O=c1c(O)c(-c2ccc(O)cc2)oc2cc(O)cc(O)c12      1.17
2                     O=C(O)Cc1cccc2ccccc12      1.08
3  CC(=O)c1ccc(S(=O)(=O)NC(=O)NC2CCCCC2)cc1   0.00348
4  O=C(O)c1cc(O)c2c(c1)C(=O)c1cccc(O)c1C2=O      -6.3
5  CC1=C(/C=C/C(C)=C/C=C/C(C)=C/C(=O)Nc2ccc(O)cc2)C(C)(C)CCC1    -0.319
6         O=c1c(-c2ccc(O)cc2)coc2cc(O)ccc12     -7.71
7    O=c1[nH]cnc2c1ncn2[C@H]1CC[C@@H](CO)O1       3.7
8           CCCNC(=O)NS(=O)(=O)c1ccc(Cl)cc1   -0.0991
